Assay: qHTS of pediatric cancer cell lines to identify multiple opportunities for drug repurposing: Primary screen for A673 cells (AID 1347092); also: nearly all actives have a fitted effect of over 45% in size
Conditions: A673 Ewing sarcoma viability, CellTiter-Glo ATP luminescence, 48 h; series mostly up to 46 µM
Results filed as inconclusive are left out. Calls of active or inactive are those of the source. Calls follow the shape of the dose curve; as a rule, active = well fitted cell-killing curve with a large enough effect; inconclusive = small, poorly fitted or top-dose-only effect; inactive = no such curve, though single readings can be large or run the other way.
Permitted responses: TRUE = active, FALSE = inactive

Example entries begin here.
compound | group.label
C#CCN[C@@H]1CCc2ccccc21 | FALSE
Cc1cccc(Nc2ccncc2S(=O)(=O)NC(=O)NC(C)C)c1 | FALSE
CCCCS(=N)(=O)CCC(N)C(=O)O (stereo not drawn) | TRUE
CN1CCN(c2c(F)cc3c(=O)c(C(=O)O)cn4c3c2OCN4C)CC1 | FALSE
CCN(CC)CC#CCOC(=O)C(O)(c1ccccc1)C1CCCCC1 (stereo not drawn) | FALSE

Data request: Could you kindly confirm the outcome this assay logged for C[C@@H]1CN(c2c(F)c(N)c3c(=O)c(C(=O)O)cn(C4CC4)c3c2F)C[C@H](C)N1 ?
Data returned: FALSE

Data request: Could you kindly confirm the outcome this assay logged for CCCCc1oc2ccc(NS(C)(=O)=O)cc2c1C(=O)c1ccc(OCCCN(CCCC)CCCC)cc1 ?
Data returned: TRUE

Data request: Could you kindly confirm the outcome this assay logged for Nc1ccc(S(=O)(=O)Nc2ccccn2)cc1 ?
Data returned: FALSE

Data request: Could you kindly confirm the outcome this assay logged for COc1ccccc1OCC(O)COC(N)=O (stereo not drawn) ?
Data returned: FALSE

---

Assay: Quantitative High-Throughput drug screen in 47 multiple myeloma cell lines against the NCATS MIPE library collection: PCM6_Riken cell viability assay (AID 1919870); also: nearly all actives have a fitted effect of over 30% in size
Settings: CellTiter-Glo ATP, 48 h; series mostly up to 45.8 µM
Inconclusive results are not listed. Active and inactive are the calls of the source. Calls follow the shape of the dose curve; as a rule, active = well fitted cell-killing curve with a large enough effect; inconclusive = small, poorly fitted or top-dose-only effect, or effect the other way; inactive = no such curve, though single readings can be large or run the other way.
Permitted responses: Y for active, N for inactive

Example entries begin here.
compound | group.label
CC(N)C12CC3CC(CC(C3)C1)C2 (stereo unspecified) | N
CCCOc1ccc(C(=O)OCCN(CC)CC)cc1N | N
CCCc1nc(C)c2c(=O)[nH]c(-c3cc(S(=O)(=O)N4CCN(CC)CC4)ccc3OCC)nn12 | Y
NC(=O)c1cccc(N)c1 | N
NCCCC(O)(P(=O)(O)O)P(=O)(O)O | Y
O=S(=O)(c1cccc2cnccc12)N1CCCNCC1 | Y
CNS(=O)(=O)Cc1ccc2[nH]cc(CCN(C)C)c2c1 | N
CC(C)NCC(O)c1ccc(NS(C)(=O)=O)cc1 (stereo unspecified) | N
CCc1c2c(nc3ccc(OC(=O)N4CCC(N5CCCCC5)CC4)cc13)-c1cc3c(c(=O)n1C2)COC(=O)[C@]3(O)CC | Y
O=c1oc2c(O)c(O)cc3c(=O)oc4c(O)c(O)cc1c4c23 | N

Data request: Could you kindly confirm the outcome this assay logged for N=C(N)c1ccc(OCCCCCOc2ccc(C(=N)N)cc2)cc1 ?
Data returned: Y

---

System: CP247
Experiment: qHTS profiling for inhibitors of Plasmodium falciparum proliferation (AID 504749); also: nearly all actives have a fitted effect of over 60% in size; also: potency is read from the fitted curve at half-maximal effect
Conditions: P. falciparum in erythrocytes, SYBR Green DNA, 72 h; series mostly up to 28.7 µM
Inconclusive results are not listed. Calls of active or inactive are those of the source. The call rests on the fitted dose curve; in most records, active means well fitted inhibition curve with a large enough effect; inconclusive means small, poorly fitted or top-dose-only effect; inactive means flat fitted curve, though single readings scatter.
quantity.name: Potency

compound | Potency
CCCc1nc(C)c2c(=O)[nH]c(-c3cc(S(=O)(=O)N4CCN(CC)CC4)ccc3OCC)nn12 | inactive
Cc1noc(NS(=O)(=O)c2ccc(N)cc2)c1C | inactive
Cc1cccc(Nc2ccncc2S(=O)(=O)NC(=O)NC(C)C)c1 | inactive
CC(C)NCC(O)c1ccc(NS(C)(=O)=O)cc1 (stereo unspecified) | inactive
O=NN(CCCl)C(=O)NC1CCCCC1 | inactive
CC(C)(C)C(=O)OCOP(=O)(COCCn1cnc2c(N)ncnc21)OCOC(=O)C(C)(C)C | inactive
OC(Cn1cncn1)(Cn1cncn1)c1ccc(F)cc1F | inactive
CNC(=O)c1cc(Oc2ccc(NC(=O)Nc3ccc(Cl)c(C(F)(F)F)c3)cc2)ccn1 | 10 µM (active)
CN(CCOc1ccc(CC2SC(=O)NC2=O)cc1)c1ccccn1 (stereo unspecified) | inactive
Cc1oc(=O)oc1CN1CCN(c2cc3c(cc2F)c(=O)c(C(=O)O)c2n3C(C)S2)CC1 (stereo unspecified) | 8.91 µM (active)

Here's the next entry for you.
Data request: Entry CCc1cc(C(N)=S)ccn1 , system CP247: what Potency was measured?
Data returned: inactive
